measured on: Histone deacetylase 1 (Homo sapiens)
Sequence (Q13547 whole entry): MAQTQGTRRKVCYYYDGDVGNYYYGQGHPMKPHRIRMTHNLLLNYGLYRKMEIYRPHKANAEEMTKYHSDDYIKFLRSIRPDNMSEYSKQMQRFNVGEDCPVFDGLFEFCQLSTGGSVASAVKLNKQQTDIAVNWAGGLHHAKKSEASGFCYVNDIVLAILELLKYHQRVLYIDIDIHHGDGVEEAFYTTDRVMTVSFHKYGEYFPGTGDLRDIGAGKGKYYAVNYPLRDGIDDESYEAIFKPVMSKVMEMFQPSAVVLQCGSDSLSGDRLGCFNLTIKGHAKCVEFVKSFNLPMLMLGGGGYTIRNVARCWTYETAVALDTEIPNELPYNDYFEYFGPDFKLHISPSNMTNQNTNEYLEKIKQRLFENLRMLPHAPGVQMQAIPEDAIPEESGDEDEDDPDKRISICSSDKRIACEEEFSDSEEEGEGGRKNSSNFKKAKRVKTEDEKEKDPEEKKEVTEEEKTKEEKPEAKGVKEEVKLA
protocol details: Inhibition of full length recombinant human C-terminal His/Flag-tagged HDAC1 expressed in baculovirus infected Sf9 cells using fluorogenic HDAC substrate after 30 mins by fluorescence analysis
pIC50: −log10 of the molar value.
property: pIC50

Answered cases to consult:
Record CCCc1nn(C)c2c(=O)[nH]c(-c3cc(S(=O)(=O)N4CCN(c5ncc(C(=O)NO)cn5)CC4)ccc3OCC)nc12 , field pIC50: 8.10

Record CCCc1nn(C)c2c(=O)[nH]c(-c3cc(CN4CCN(c5ncc(C(=O)NO)cn5)CC4)ccc3OCC)nc12 , field pIC50: 7.85

Record CCCc1nn(C)c2c(=O)[nH]c(-c3cc(CC4CCN(c5ncc(C(=O)NO)cn5)CC4)ccc3OCC)nc12 , field pIC50: 7.20

I = CCCc1nn(C)c2c(=O)[nH]c(-c3cc(C4CCC(CC(=O)NO)CC4)ccc3OCC)nc12 (stereo not drawn)
II = CCCc1nn(C)c2c(=O)[nH]c(-c3cc(Cc4ccc(CCC(=O)NO)cc4)ccc3OCC)nc12
Exam item: Pick the one with the larger pIC50: I vs II Pick one and reply with its label.
Marked response: II
(II: 5.62, I: 5.16)

1 = CCCc1nn(C)c2c(=O)[nH]c(-c3cc(C4CC(C(=O)NO)C4)ccc3OCC)nc12 (stereo not drawn)
2 = CCCc1nn(C)c2c(=O)[nH]c(-c3cc(S(=O)(=O)N4CCN(CCCC(=O)NO)CC4)ccc3OCC)nc12
Exam item: Given the listed items, does 1 or 2 have the lesser reported pIC50? Pick one and reply with its label.
Marked response: 2
(2: 5.96, 1: 6.26)

###

Each item that follows carries a reported pIC50.
measured on: Histone deacetylase 2 (Homo sapiens, UniProt Q92769)
Sequence (Q92769 whole entry): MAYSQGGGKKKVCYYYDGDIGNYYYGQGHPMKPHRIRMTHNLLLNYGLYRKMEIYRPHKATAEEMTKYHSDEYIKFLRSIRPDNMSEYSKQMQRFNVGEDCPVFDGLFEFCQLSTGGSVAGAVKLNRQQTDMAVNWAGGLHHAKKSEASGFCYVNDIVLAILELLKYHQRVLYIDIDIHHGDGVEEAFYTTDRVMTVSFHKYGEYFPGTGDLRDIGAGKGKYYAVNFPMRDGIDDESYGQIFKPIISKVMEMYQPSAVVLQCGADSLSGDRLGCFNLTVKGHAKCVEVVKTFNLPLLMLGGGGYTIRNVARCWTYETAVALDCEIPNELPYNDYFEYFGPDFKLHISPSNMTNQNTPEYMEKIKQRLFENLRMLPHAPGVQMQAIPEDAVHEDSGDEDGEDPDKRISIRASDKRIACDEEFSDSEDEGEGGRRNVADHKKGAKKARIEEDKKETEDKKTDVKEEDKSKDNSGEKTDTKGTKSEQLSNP
protocol details: Inhibition of full length recombinant human C-terminal His-tagged HDAC2 expressed in baculovirus infected Sf9 cells using fluorogenic HDAC substrate after 30 mins by fluorescence analysis
pIC50: −log10 of the molar value.

Record CCCc1nn(C)c2c(=O)[nH]c(-c3cc(Cc4ccc(CCC(=O)NO)cc4)ccc3OCC)nc12 , field pIC50: < 4.70

Record CCCc1nn(C)c2c(=O)[nH]c(-c3cc(-c4ccc(C(=O)NO)o4)ccc3OCC)nc12 , field pIC50: < 4.70

Record CCCc1nn(C)c2c(=O)[nH]c(-c3cc(N(C)C4CCN(c5ncc(C(=O)NO)cn5)CC4)ccc3OCC)nc12 , field pIC50: 6.78

Record CCCc1nn(C)c2c(=O)[nH]c(-c3cc(-c4ccc(C(=O)NO)nc4)ccc3OCC)nc12 , field pIC50: < 4.70

Record CCCc1nn(C)c2c(=O)[nH]c(-c3cc(S(=O)(=O)N4CCN(CCC(=O)NO)CC4)ccc3OCC)nc12 , field pIC50: < 4.70

Others:
Record CCCc1nn(C)c2c(=O)[nH]c(-c3cc(S(=O)(=O)NC4CCN(c5ncc(C(=O)NO)cn5)CC4)ccc3OCC)nc12 , field pIC50: 6.47

Record CCCc1nn(C)c2c(=O)[nH]c(-c3cc(N4CCC(CCC(=O)NO)CC4)ccc3OCC)nc12 , field pIC50: 5.69

Record CCCc1nn(C)c2c(=O)[nH]c(-c3cc(Cc4ccc(/C=C/C(=O)NO)cc4)ccc3OCC)nc12 , field pIC50: < 4.70
